# Tested on: WaGa
# test.name: qHTS assay to identify novel small-molecules to repurpose for Merkel cell carcinoma treatment (AID 1296009); note: nearly all actives have a fitted effect of over 60% in size
# test.context: MCC and control cell lines, CellTiter-Glo viability, 72 h; series mostly up to 46 µM
# Description: MCC is a rare and aggressive neuroendocrine skin cancer with limited treatment options. Approximately 80% of MCCs have the Merkel cell polyomavirus (MCPyV) DNA integrated into the host genome (virus-positive: VP-MCC) and viral oncogenes drive oncogenesis. The remaining MCCs are virus-negative (VN-MCC) and are caused by UV mutagenesis. […] Using cell viability as a readout (CellTiter-Glo assay) we found both overlapping and distinct drugs that can be repurposed for the treatment of VP-MCC and VN-MCC. […]
Records with an inconclusive call do not appear. Calls of active or inactive are those of the source. Calls come from the whole dose curve; as a rule, active = well fitted inhibition curve with a large enough effect; inconclusive = small, poorly fitted or top-dose-only effect; inactive = flat fitted curve, though single readings scatter.
Possible outcomes: active, inactive

molecule	label.class
NC(=O)c1ncn([C@@H]2O[C@H](CO)[C@@H](O)[C@@H]2O)c1N	inactive
C=CC(=O)Nc1cc(NC(=O)c2ccc(C)c(NC(=O)c3ccno3)c2)cc(C(F)(F)F)c1	active
Nc1cccc2c1C(=O)N(C1CCC(=O)NC1=O)C2=O (stereo unspecified)	inactive
Cn1cnc2c(F)c(Nc3ccc(Br)cc3F)c(C(=O)NOCCO)cc21	inactive
CC(C)C[C@H](NC(=O)[C@@H](NC(=O)c1cccc(-c2ccccc2)n1)[C@@H](C)O)B(O)O	active
N#CC(=C(O)c1ccc(Cl)cc1Cl)c1nc2cc(Cl)ccc2c(=O)[nH]1	inactive
C=C[C@@H]1CN2CCC1C[C@H]2[C@H](O)c1ccnc2ccc(OC)cc12 (stereo partly specified)	inactive
N=c1ccn2c(n1)O[C@H]1[C@@H](O)[C@@H](CO)O[C@H]12	active
COc1cc2ncnc(Nc3cccc(Br)c3)c2cc1OC	inactive
CC(=O)N[C@@H]1[C@H](O[C@@H]2c3ccc(c(Cl)c3)Oc3cc4cc(c3O[C@H]3O[C@H](CO)[C@@H](O)[C@H](O)[C@H]3NC(=O)CCCCCCCC(C)C)Oc3ccc(cc3Cl)C[C@H]3NC(=O)[C@H](N)c5ccc(O)c(c5)Oc5cc(O)cc(c5)[C@H](NC3=O)C(=O)N[C@H]4C(=O)N[C@H]3C(=O)N[C@@H]2C(=O)N[C@@H](C(=O)O)c2cc(O)cc(O[C@H]4O[C@H](CO)[C@@H](O)[C@H](O)[C@H]4O)c2-c2cc3ccc2O)O[C@H](CO)[C@@H](O)[C@@H]1O	inactive
Nc1nc2c(c(=O)[nH]1)N(C=O)[C@H](CNc1ccc(C(=O)N[C@@H](CCC(=O)O)C(=O)O)cc1)CN2	inactive
CN[C@@H]1C[C@H]2O[C@@](C)([C@H]1OC)n1c3ccccc3c3c4c(c5c6ccccc6n2c5c31)C(=O)N[C@H]4O	active
COc1ccc(CCC(=O)c2c(O)cc(O[C@@H]3O[C@H](CO)[C@@H](O)[C@H](O)[C@@H]3O[C@@H]3O[C@@H](C)[C@H](O)[C@@H](O)[C@@H]3O)cc2O)cc1O	inactive
CC[C@@]1([C@@H]2O[C@@H]([C@H]3O[C@@](O)(CO)[C@H](C)C[C@H]3C)C[C@H]2C)CC[C@H]([C@]2(C)CC[C@]3(C[C@H](O)[C@@H](C)[C@@H]([C@@H](C)[C@@H](OC)[C@H](C)C(=O)O)O3)O2)O1	active
c1ccc2c(Oc3nc(Nc4ccc(N5CCOCC5)cc4)c4ncn(C5CCCCC5)c4n3)cccc2c1	inactive
CC(C)C[C@H](NC(=O)CNC(=O)c1cc(Cl)ccc1Cl)B1OC(=O)CC(CC(=O)O)(C(=O)O)O1 (stereo partly specified)	active
CN[C@H]1[C@@H](O)[C@@H]2O[C@@H]3O[C@H](C)CC(=O)[C@]3(O)O[C@@H]2[C@@H](NC)[C@H]1O	active
CCCCCCCCCCCCCCCC(=O)OC[C@@H](NC(=O)C(Cl)Cl)[C@H](O)c1ccc([N+](=O)[O-])cc1	inactive
C[C@@H]1CC[C@@]2(OC1)OC1CC3C4CC=C5CC(O)CCC5(C)C4CCC3(C)C1[C@@H]2C (stereo partly specified)	inactive
O=C1CSC(=O)N1C(CCc1ccncc1)COc1ccc(-c2cccc([N+](=O)[O-])c2)cc1 (stereo unspecified)	active
CCCCCCCN(CC)CCCC(O)c1ccc(NS(C)(=O)=O)cc1 (stereo unspecified)	inactive
O=C(O)CCCCC(CCSCc1ccccc1)SCc1ccccc1 (stereo unspecified)	active
COc1ccc(Nc2nccc(NCCO)n2)cc1	inactive
CC1(C)[C@H](O[C@H]2O[C@H](C(=O)O)[C@@H](O)[C@H](O)[C@H]2O[C@@H]2O[C@H](C(=O)O)[C@@H](O)[C@H](O)[C@H]2O)CC[C@@]2(C)[C@H]1CC[C@]1(C)[C@H]2C(=O)C=C2[C@H]3C[C@@](C)(C(=O)O)CC[C@]3(C)CC[C@]21C	inactive
O=C1NC(=O)C(=Cc2ccc3nccc(-c4ccncc4)c3c2)S1	active
Cn1cc(-c2cnn3c(N)c(Br)c([C@H]4CCCNC4)nc23)cn1	active
CC(=O)N[C@H]1[C@@H]([C@H](O)[C@H](O)CO)OC(C(=O)O)=C[C@@H]1N=C(N)N	inactive
Cc1[nH]c(C=C2C(=O)Nc3ccccc32)c(C)c1CCC(=O)O	active
C=C1CCC2[C@](C)(CO)C(O)CC[C@]2(C)C1CC=C1C(=O)OCC1O (stereo partly specified)	inactive
C=CC(=O)Nc1ccc2ncnc(Nc3ccc(OCc4cccc(F)c4)c(Cl)c3)c2c1	active
O=c1ccn([C@@H]2O[C@H](CO)[C@H](O)[C@@H]2F)c(=O)[nH]1	inactive
